# Tested on: HCV replicon
# Run Description: HCV replicon replication assay (NPT ELISA) in Huh-7 replicon-containing cells
# Format: cell-based, Hepatitis C virus
# Protocol Conditions: Hepatitis C virus, 72 h; inhibition of HCV replicon replication, Huh-7 HCV replicon-containing cells, three days
pEC50: −log10 of the molar value.
Catalogue of pEC50 readings, one per entry.
Measurement Name: pEC50

molecule="CCCC(NC(=O)[C@@H]1C[C@@H](OC(=O)N2CCc3ccccc3C2)CN1C(=O)C(C)N1CCCCC1)C(=O)C(=O)NC1CC1 (stereo partly drawn)" measurement_target="HCV replicon" experimental_value="> 4.00"
molecule="C=CC1CC1(NC(=O)[C@@H]1C[C@@H](Oc2cc(-c3ccccc3)nc3cc(OC)ccc23)CN1C(=O)[C@H](C(C)C)N1CCCCC1)C(=O)NS(=O)(=O)C1CC1 (stereo partly drawn)" measurement_target="HCV replicon" experimental_value="> 4.00"
molecule="CCCC(NC(=O)C1C2CCCC2CN1C(=O)[C@@H](N1CCCCC1)C(C)(C)C)C(=O)C(=O)NC1CC1 (stereo partly drawn)" measurement_target="HCV replicon" experimental_value="> 4.00"
molecule="CCCC(NC(=O)C1C[C@@H](OC(=O)N2CCc3ccccc3C2)CN1C(=O)C(C)N1CCCC1)C(=O)C(=O)NC1CC1 (stereo partly drawn)" measurement_target="HCV replicon" experimental_value="< 4.00"
molecule=CCOC(=O)[C@]12C[C@@H]1/C=C\CCCCC[C@H](N1CCCCC1)C(=O)N1C[C@H](Oc3cc(-c4ccccc4)nc4cc(OC)ccc34)C[C@H]1C(=O)N2 measurement_target="HCV replicon" experimental_value="> 4.00"
molecule=CCOC(=O)[C@@]12C[C@H]1/C=C\CCCCC[C@H](N1CCCCC1)C(=O)N1C[C@H](Oc3cc(-c4ccccc4)nc4cc(OC)ccc34)C[C@H]1C(=O)N2 measurement_target="HCV replicon" experimental_value="> 4.00"

* * *

# Test system: HCV replicon
# Run Description: HCV replicon replication assay (NPT ELISA) in Huh-7 replicon-containing cells
# Format: cell-based, Hepatitis C virus
# Protocol Conditions: inhibition of HCV replicon replication, Huh-7 HCV replicon-containing cells, three days
pEC50: −log10 of the molar value.
Measurement Name: pEC50

compound="CCCC(NC(=O)C1C2CCCC2CN1C(=O)[C@@H](N1CCCCC1)C(C)(C)C)C(=O)C(=O)NC1CC1 (stereo partly shown)" measurement_target="HCV replicon" measurement_name=pEC50 experimental_value="> 4.00"

The values you see were collected from patent US8435984B2.
